Source: patent US20050124539A1

Promoting activity to GTPγS binding (EC50 nM) values by entry
- target-desc: T1, Human GPR7 (human, UniProt P48145 1-328)
- T1 sequence: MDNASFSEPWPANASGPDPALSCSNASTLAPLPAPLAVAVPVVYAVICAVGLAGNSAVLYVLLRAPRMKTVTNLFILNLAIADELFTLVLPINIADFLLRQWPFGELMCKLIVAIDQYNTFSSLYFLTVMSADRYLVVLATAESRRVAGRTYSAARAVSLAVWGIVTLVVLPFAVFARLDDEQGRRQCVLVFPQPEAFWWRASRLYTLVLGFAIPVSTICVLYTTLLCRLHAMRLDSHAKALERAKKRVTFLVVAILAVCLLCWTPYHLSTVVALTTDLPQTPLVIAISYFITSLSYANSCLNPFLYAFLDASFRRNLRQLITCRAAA
- experimental-protocol: cell-based or functional assay
No end group written: not given here. *: point of attachment. Propanoyl(3-indol-3-yl) = O=C(CCc1c[nH]c2ccccc12)*
Give the value in nM but do not write nM after it.

Worked cases, Promoting activity to GTPγS binding (EC50 nM) given:
{"columns": ["binder", "assay-result"],
 "data": [
  ["WYKHTASPRYHTVGRAAGLLMGL (also called pGPR8L(1-23); porcine homologue of GPR8 ligand peptide) [porcine GPR8 ligand (1-23)]", 0.35],
  ["{Propanoyl(3-indol-3-yl)}-YKHVASPRYHTVGRAAGLLMGL (also called IndPr-hGPR8L(2-23)) [[N-3-Indolepropanoyl-Tyr^2]-human GPR8 ligand (2-23)]", 0.85],
  ["XYKHVASPRYHTVGRAAGLLMGL (N-alpha-acetyl on Trp 1, also called Ac-hGPR8L(1-23)) [[N^α-Acetyl-Trp^1]-Human GPR8 ligand (1-23)]", 1.5]
]}

--- query ---
Promoting activity to GTPγS binding (EC50 nM) reported for this binder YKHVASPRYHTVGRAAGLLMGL (also called hGPR8L(2-23)) [Human GPR8 ligand (2-23)] : 7410
